System: HUVEC
test method notes: Compound was evaluated for inhibition of expression of VCAM-1 in IL-1 beta activated human umbilical vein endothelial cells(HUVECs) by using ELISA
Assay type: functional, cell-based
pIC50: −log10 of the molar value.
Quick reference: pIC50 of the listed items.
endpoint: pIC50

[
  {
    "compound": "COc1c(C)cnc(C[S+]([O-])c2nnc(-c3ccccc3O)o2)c1C (centres undefined)",
    "system under test": "HUVEC",
    "endpoint": "pIC50",
    "value reported": 5.10
  },
  {
    "compound": "COc1c(C)cnc(C[S+]([O-])c2nnc(-c3cccs3)o2)c1C (centres undefined)",
    "system under test": "HUVEC",
    "endpoint": "pIC50",
    "value reported": 5.52
  },
  {
    "compound": "[O-][S+](Cc1ccccc1)c1nnc(-c2ccccc2O)o1 (centres undefined)",
    "system under test": "HUVEC",
    "endpoint": "pIC50",
    "value reported": 5.22
  },
  {
    "compound": "COc1c(C)cnc(C[S+]([O-])c2nnc(-c3cccc(F)c3)o2)c1C (centres undefined)",
    "system under test": "HUVEC",
    "endpoint": "pIC50",
    "value reported": 4.92
  },
  {
    "compound": "[O-][S+](Cc1ccccc1)c1nnc(-c2ccncc2)o1 (centres undefined)",
    "system under test": "HUVEC",
    "endpoint": "pIC50",
    "value reported": 5.52
  },
  {
    "compound": "COc1c(C)cnc(C[S+]([O-])c2nnc(-c3ccccc3)o2)c1C (centres undefined)",
    "system under test": "HUVEC",
    "endpoint": "pIC50",
    "value reported": 5.22
  },
  {
    "compound": "COc1c(C)cnc(C[S+]([O-])c2nnc(-c3cccn3C)o2)c1C (centres undefined)",
    "system under test": "HUVEC",
    "endpoint": "pIC50",
    "value reported": 5.40
  },
  {
    "compound": "CCCc1nnc([S+]([O-])Cc2ncc(C)c(OC)c2C)o1 (centres undefined)",
    "system under test": "HUVEC",
    "endpoint": "pIC50",
    "value reported": 5.10
  },
  {
    "compound": "[O-][S+](Cc1ccccc1)c1nnc(-c2cccs2)o1 (centres undefined)",
    "system under test": "HUVEC",
    "endpoint": "pIC50",
    "value reported": 5.22
  },
  {
    "compound": "[O-][S+](Cc1ccccc1)c1nnc(-c2cccnc2)o1 (centres undefined)",
    "system under test": "HUVEC",
    "endpoint": "pIC50",
    "value reported": 5.22
  },
  {
    "compound": "CCc1nnc([S+]([O-])Cc2ncc(C)c(OC)c2C)o1 (centres undefined)",
    "system under test": "HUVEC",
    "endpoint": "pIC50",
    "value reported": 5.00
  },
  {
    "compound": "COc1c(C)cnc(C[S+]([O-])c2nnc(C)o2)c1C (centres undefined)",
    "system under test": "HUVEC",
    "endpoint": "pIC50",
    "value reported": 5.10
  },
  {
    "compound": "[O-][S+](Cc1ccccc1)c1nnc(-c2ccccn2)o1 (centres undefined)",
    "system under test": "HUVEC",
    "endpoint": "pIC50",
    "value reported": 5.40
  },
  {
    "compound": "COc1c(C)cnc(C[S+]([O-])c2nnc(-c3ccc(F)cc3)o2)c1C (centres undefined)",
    "system under test": "HUVEC",
    "endpoint": "pIC50",
    "value reported": 4.96
  }
]

This collection of values is drawn from ChEMBL document CHEMBL1128925.
